Measured log10(Ki) accompanies every entry in the list below.
# experimentalSystem: hCA II (Homo sapiens)
# Construct: gene CA2; cytosolic isoform
# assayComment: stopped-flow CO2 hydrase assay
# Format: biochemical
outcomeMeasure: log10(Ki) (log10 of the value in nM)

{"columns": ["compound", "outcomeMeasure", "quantitativeReadout"],
 "data": [
  ["NS(=O)(=O)c1ccc(NCC(=O)N/N=C/c2ccccn2)cc1", "log10(Ki)", 2.62],
  ["CC1=NN(C(=O)CNc2ccc(S(N)(=O)=O)cc2)C(c2ccc(F)cc2)C1 (stereo not shown)", "log10(Ki)", 2.96],
  ["COc1ccc(C2CC(C)=NN2C(=O)CNc2ccc(S(N)(=O)=O)cc2)cc1 (stereo not shown)", "log10(Ki)", 3.74],
  ["NS(=O)(=O)c1ccc(NCC(=O)N2N=C(c3ccc(Cl)cc3)CC2c2ccccc2Cl)cc1 (stereo not shown)", "log10(Ki)", 2.64],
  ["Cc1ccc(C=NNC(=O)CNc2ccc(S(N)(=O)=O)cc2)cc1", "log10(Ki)", 2.96],
  ["NS(=O)(=O)c1ccc(NCC(=O)N2N=C(c3ccc(Cl)cc3)CC2c2ccc(Br)cc2)cc1 (stereo not shown)", "log10(Ki)", 3.45],
  ["CC1=NN(C(=O)CNc2ccc(S(N)(=O)=O)cc2)C(c2ccccc2O)C1 (stereo not shown)", "log10(Ki)", 1.92],
  ["CC1=NN(C(=O)CNc2ccc(S(N)(=O)=O)cc2)C(c2ccc(O)cc2)C1 (stereo not shown)", "log10(Ki)", 1.87],
  ["CC1=NN(C(=O)CNc2ccc(S(N)(=O)=O)cc2)C(c2ccc(Cl)cc2)C1 (stereo not shown)", "log10(Ki)", 2.97],
  ["NS(=O)(=O)c1ccc(NCC(=O)N2N=C(c3ccc(Cl)cc3)CC2c2ccccc2O)cc1 (stereo not shown)", "log10(Ki)", 2.76],
  ["NS(=O)(=O)c1ccc(NCC(=O)N2N=C(c3ccc(Cl)cc3)CC2c2c3ccccc3cc3ccccc23)cc1 (stereo not shown)", "log10(Ki)", 3.31],
  ["COc1cc(/C=N/NC(=O)CNc2ccc(S(N)(=O)=O)cc2)cc(OC)c1O", "log10(Ki)", 2.68],
  ["NS(=O)(=O)c1ccc(NCC(=O)N2N=C(c3ccc(Cl)cc3)CC2c2ccc(F)cc2)cc1 (stereo not shown)", "log10(Ki)", 2.70],
  ["NS(=O)(=O)c1ccc(NCC(=O)N2N=C(c3ccc(Cl)cc3)CC2c2ccncc2)cc1 (stereo not shown)", "log10(Ki)", 1.63],
  ["COc1cc(/C=N/NC(=O)CNc2ccc(S(N)(=O)=O)cc2)cc(OC)c1OC", "log10(Ki)", 2.65],
  ["COc1cccc(C=NNC(=O)CNc2ccc(S(N)(=O)=O)cc2)c1OC", "log10(Ki)", 2.38],
  ["NS(=O)(=O)c1ccc(NCC(=O)N/N=C/c2ccccc2O)cc1", "log10(Ki)", 1.51],
  ["COc1ccc(/C=N/NC(=O)CNc2ccc(S(N)(=O)=O)cc2)cc1", "log10(Ki)", 2.85],
  ["NS(=O)(=O)c1ccc(NCC(=O)N/N=C/c2ccccc2)cc1", "log10(Ki)", 2.74]
]}

----------
# experimentalSystem: hCA II (Homo sapiens)
# Construct: gene CA2; cytosolic isoform
# assayComment: stopped-flow CO2 hydrase assay
# Assay type: biochemical
Measured Ki accompanies every entry in the list below.

{"columns": ["molecule", "Ki, nM"],
 "data": [
  ["NS(=O)(=O)c1ccc(NCC(=O)N2N=C(c3ccc(Cl)cc3)CC2c2cccs2)cc1 (stereo not drawn)", 373],
  ["CC1=NN(C(=O)CNc2ccc(S(N)(=O)=O)cc2)C(c2cccs2)C1 (stereo not drawn)", 126],
  ["CC1=NN(C(=O)CNc2ccc(S(N)(=O)=O)cc2)C(c2ccccc2)C1 (stereo not drawn)", 810],
  ["COc1ccc(C2CC(c3ccc(Cl)cc3)=NN2C(=O)CNc2ccc(S(N)(=O)=O)cc2)cc1OC (stereo not drawn)", 424],
  ["CC1=NN(C(=O)CNc2ccc(S(N)(=O)=O)cc2)C(c2ccccc2Cl)C1 (stereo not drawn)", 648],
  ["NS(=O)(=O)c1ccc(NCC(=O)N2N=C(c3ccc(Cl)cc3)CC2c2ccccc2)cc1 (stereo not drawn)", 282],
  ["CC1=NN(C(=O)CNc2ccc(S(N)(=O)=O)cc2)C(c2ccc(N(C)C)cc2)C1 (stereo not drawn)", 5150],
  ["COc1ccc(/C=N/NC(=O)CNc2ccc(S(N)(=O)=O)cc2)cc1OC", 758],
  ["CC1=NN(C(=O)CNc2ccc(S(N)(=O)=O)cc2)C(c2ccc(C)cc2)C1 (stereo not drawn)", 3460]
]}
